targetOrTestSystem: LTB4 receptor (Homo sapiens, UniProt Q15722)
Construct: Neutrophils were purified from venous blood of normal human donors; endogenous in cells
Sequence (Q15722 whole entry): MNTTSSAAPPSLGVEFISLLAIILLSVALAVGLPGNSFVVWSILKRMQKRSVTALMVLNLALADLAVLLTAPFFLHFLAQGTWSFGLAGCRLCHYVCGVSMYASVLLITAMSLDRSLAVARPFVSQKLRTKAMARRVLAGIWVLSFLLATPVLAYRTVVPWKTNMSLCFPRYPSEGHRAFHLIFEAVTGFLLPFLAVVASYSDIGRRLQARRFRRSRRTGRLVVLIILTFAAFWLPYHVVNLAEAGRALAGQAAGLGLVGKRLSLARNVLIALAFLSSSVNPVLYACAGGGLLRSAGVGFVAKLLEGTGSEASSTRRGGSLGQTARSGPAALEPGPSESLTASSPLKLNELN
experimentalProtocol: LTB4 Receptor Binding Assay (human neutrophils)
conditionsUsed: LTB4 Antagonism, 0.6 nano M (3H) LTB4, 0° C., 45 minutes
propertyMeasured: IC50 (nM)
Number in nM, nothing else.

The compound listed as CCCc1c(OCCCSCC2CSC(C)(CCCC(=O)O)S2)ccc(C(C)=O)c1OC (stereo not shown) [Example 81] has a reported IC50 of 60

---

What Kb was measured for each of the following?
targetOrTestSystem: guinea pig ileum (LTD4-induced contraction) (Cavia porcellus, UniProt Q2NNR5)
Construct: Fresh segments of guinea pig ileum; from tissue; host or cells: guinea pig ileum segments
Sequence (Q2NNR5 whole entry): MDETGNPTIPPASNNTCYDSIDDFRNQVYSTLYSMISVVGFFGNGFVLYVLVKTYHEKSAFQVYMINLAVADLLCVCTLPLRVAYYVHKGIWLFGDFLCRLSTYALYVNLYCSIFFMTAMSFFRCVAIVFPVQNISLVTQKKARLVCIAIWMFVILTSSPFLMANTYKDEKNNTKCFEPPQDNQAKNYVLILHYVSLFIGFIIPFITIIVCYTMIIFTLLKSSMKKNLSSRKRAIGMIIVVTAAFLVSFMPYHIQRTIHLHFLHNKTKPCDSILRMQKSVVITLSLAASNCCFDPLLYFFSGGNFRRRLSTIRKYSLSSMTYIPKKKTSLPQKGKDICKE
experimentalProtocol: LTD4 Antagonism in Guinea Pig Ileum
Type: cell-based
conditionsUsed: pA2, Schild analysis
Number in nM, nothing else.

The compound listed as CCCc1c(OCCCSCC2CSC(C)(CCCC(=O)O)S2)ccc(C(C)=O)c1O (stereo not drawn) [Example 61] has a reported Kb of 9.55

The compound listed as CCCc1c(OCCCSCC2COC(CCC(=O)O)(CCC(=O)O)S2)ccc(C(C)=O)c1O (stereo not drawn) [Example 3] has a reported Kb of 21.4

The compound listed as CCCc1c(OCCCSCC2CSC(CCC(=O)O)(CCC(=O)O)S2)ccc(C(C)=O)c1O (stereo not drawn) [Example 35] has a reported Kb of 8.91

The compound listed as CCCc1c(OCCCSCC2COC(CCC(=O)O)(c3ccccc3)S2)ccc(C(C)=O)c1O (stereo not drawn) [Example 70] has a reported Kb of 26.9

The compound listed as CCCc1c(OCCCSCC2COC(C)(CCC(=O)O)S2)ccc(C(C)=O)c1O (stereo not drawn) [Example 38] has a reported Kb of 14.5

The compound listed as CCCc1c(OCCCSCC2CSC(C)(CCC(=O)O)S2)ccc(C(C)=O)c1O (stereo not drawn) [Example 50] has a reported Kb of 14.5
